Target: T1, recombinant human sc-uPA (human, UniProt P00749 21-431)
T1 construct: 411 amino acid single-chain zymogen expressed in HEK293; the 20-residue signal peptide is not present in the mature protein; also called human single-chain uPA; pro-uPA
Assay: SPR, mAb immobilised
quantityMeasured: Kd (nM)

>  <binder>
rec0266-0000-0010-VL_S91R (antibody, mouse IgG1, name in Kabat numbering, V domains shown) VH: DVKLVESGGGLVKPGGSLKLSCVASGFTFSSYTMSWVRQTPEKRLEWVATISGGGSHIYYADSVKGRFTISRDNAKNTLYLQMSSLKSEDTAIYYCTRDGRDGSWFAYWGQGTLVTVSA VL: DIVMTQSPATLSVTPGDRVSLSCRTSQSIGDYLHWYQQKSHESPRLLIKYVSQSISGIPSRFSGSGSGSDFTLSINSVESEDVGVYYCQNRHSFPLTFGSGTKLELKR

>  <measureUnit>
nM

>  <readoutValue>
3.1

$$$$
>  <binder>
rec0266-0000-0010-VL_S91F (antibody, mouse IgG1, name in Kabat numbering, V domains shown) VH: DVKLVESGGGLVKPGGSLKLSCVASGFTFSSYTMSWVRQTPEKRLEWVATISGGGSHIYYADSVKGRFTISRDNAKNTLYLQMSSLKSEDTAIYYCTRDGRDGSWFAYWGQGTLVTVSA VL: DIVMTQSPATLSVTPGDRVSLSCRTSQSIGDYLHWYQQKSHESPRLLIKYVSQSISGIPSRFSGSGSGSDFTLSINSVESEDVGVYYCQNFHSFPLTFGSGTKLELKR

>  <measureUnit>
nM

>  <readoutValue>
11

$$$$
